Test system: HCC-2998 colon
Assay: NCI tumour cell line growth inhibition, 48 h
Item-by-item account of TGI

compound	TGI
Cc1cc2occ(C)c(=O)c2c2c1OC(C)(C)S2	> 100 µM
C/C(=C\CCC1=CC(=O)OC1)CC[C@@H]1[C@H]2C(=O)CC(C)[C@@]3(C)CC[C@]1(C)[C@@]23C (stereo partly specified)	> 10 µM
CCOC(=O)/C=C(/CN1C(=O)c2ccccc2C1=O)c1ccccc1	> 100 µM
CC1(C)C2CCC1C(=O)C(C=O)C2 (stereo unspecified)	> 100 µM
CC1(C)OC2C(=O)OC(COCc3ccccc3)C2O1 (stereo unspecified)	> 100 µM
CCCCS(=N)(=O)CC[C@H](N)C(=O)O (stereo partly specified)	> 10000 µM

// data source = PubChem BioAssay (NCI)
